- assayed system: T1, PUF4 RNA-binding domain (Saccharomyces cerevisiae, UniProt P25339 537-888)
- T1 sequence: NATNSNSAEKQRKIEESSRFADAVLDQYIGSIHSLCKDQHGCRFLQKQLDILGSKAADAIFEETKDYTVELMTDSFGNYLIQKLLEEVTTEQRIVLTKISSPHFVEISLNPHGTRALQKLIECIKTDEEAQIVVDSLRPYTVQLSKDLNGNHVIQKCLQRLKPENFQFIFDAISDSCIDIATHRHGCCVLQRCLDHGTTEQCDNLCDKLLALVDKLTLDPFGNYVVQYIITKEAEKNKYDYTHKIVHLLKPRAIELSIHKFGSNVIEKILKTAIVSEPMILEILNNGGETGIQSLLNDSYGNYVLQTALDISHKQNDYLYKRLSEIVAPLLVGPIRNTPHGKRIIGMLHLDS
- protocol text: Mg; RNA-MaP; 20 mM Na-HEPES pH 7.4, 30 mM KOAc, 0.75 mM MgCl2, 0.1% Tween-20, 5% glycerol, 0.1 mg/mL BSA, 2 mM DTT; 25 C; 0.0125-409.6 nM protein
- experimental parameters: tags: N-His6-TEV cleaved; C-SNAP kept, Cy3B-labelled; label: tethered on chip by stalled RNA polymerase
quantity measured: log10 of Kd (log10 of the value in nM)
Units before log transform: nM; reported quantity: Kd; transform: log10.

UCUCUUUGUUCUCUAUAUUAUCUCUU (ssRNA) [Ie_S1_P4E.1_K4.1_C4.1_H4.1_[+3TCTCT]_A4.1_F4.1_T4.1]    1.70
UCUCUUUGUACCUCCCUCUCUU (ssRNA) [Ic_S1_P5E.1_K5.1_C5.1_H5.1_A5.1_[T5C]_[T6C]_[A7T]_F5.1_[T8C]_[T9C]_[A10C]_T5.1]    2.62
UCUCUUUGCAUUACUAUCUCUU (ssRNA) [Ib_S1_P5E.1_K5.1_C5.1_H5.1_[T3C]_A5.1_F5.1_[T8C]_T5.1]    3.14

Query: May I ask what log10 of Kd has been recorded for UCUCUUUAUGUAUUAUUAGUUCUCUU (ssRNA) [Id_ii_S1_P5E.2_K5.1_C5.2_[C-2T]_[T-1A]_H5.1_A5.1_F5.1_T5.2_[T11G]_[A12T]] ?
Response: 0.64

Query: Same question for UCUCUUAUACACUUAUUAACUCUCUU (ssRNA) [Id_ii_S1_P5E.4_K5.3_C5.2_[C-2A]_H5.3_A5.1_F5.1_T5.2_[T11A]_[A12C]] please.
Response: 2.67

Query: Same question for UCUCUUUGUAGUCUUCUCUU (ssRNA) [Ic_S1_P3E.1_K3.1_C3.1_H3.1_A3.1_[T5G]_[A6T]_F3.1_[T7C]_[A8T]_T3.1] please.
Response: 2.71

Query: Same question for Id_ii_S4_P4E.3_K4.2_C4.2_[C-2A]_[T-1A]_H4.2_A4.1_F4.1_T4.2_[G10C]_[T11C] (ssRNA) RNA: UUUGACAACUGAUCGUUCUUUCUAAUAUAUAUUACCUUCUUUCUCGAUCAGUUGUCUUU please.
Response: 1.68

Query: Same question for UCUCUUACUAUAUAUUACCUCUCUU (ssRNA) [Id_ii_S1_P4E.3_K4.2_C4.2_[C-2A]_[T-1C]_H4.2_A4.1_F4.1_T4.2_[G10C]_[T11C]] please.
Response: 1.58

Query: Same question for Ic_S4_P5E.1_K5.1_C5.1_H5.1_A5.1_[T5C]_[A7C]_F5.1_[T8A]_[T9G]_[A10C]_T5.1 (ssRNA) RNA: UUUGACAACUGAUCGUUCUUUCUUGUACUCAGCUUCUUUCUCGAUCAGUUGUCUUU please.
Response: 2.86

Query: Same question for Ic_S2_P5E.1_K5.1_C5.1_H5.1_A5.1_[T5A]_F5.1_[T9G]_[A10G]_T5.1 (ssRNA) RNA: UUUGAUUAAUAUGAUAUCGUUCUUUCUUGUAAUAUGGUUCUUUCUCGAUAUCAUAUUAAUCUUU please.
Response: 1.88

Query: Same question for Id_ii_S2_P5E.3_K5.2_C5.2_[T-1C]_H5.2_A5.1_F5.1_T5.2_[A12T] (ssRNA) RNA: UUUGAUUAAUAUGAUAUCGUUCUUUCUCCUAUAUUAUUAUUUUCUUUCUCGAUAUCAUAUUAAUCUUU please.
Response: 1.90

Query: Same question for Id_ii_S2_P3E.3_K3.2_C3.2_[C-2T]_[T-1A]_H3.2_A3.1_F3.1_T3.2_[A10C] (ssRNA) RNA: UUUGAUUAAUAUGAUAUCGUUCUUUCUUAUAUAUAUAUCUUCUUUCUCGAUAUCAUAUUAAUCUUU please.
Response: 1.97

Query: Same question for ACAAACACUAUAUAUAUCACAAAC (ssRNA) [Id_ii_S3_P3E.3_K3.2_C3.2_[C-2A]_[T-1C]_H3.2_A3.1_F3.1_T3.2_[A10C]] please.
Response: 2.73

Query: Same question for ACAAACAAUAUAUUAUUAGUACAAAC (ssRNA) [Id_ii_S3_P5E.3_K5.2_C5.2_[C-2A]_[T-1A]_H5.2_A5.1_F5.1_T5.2_[T11G]_[A12T]] please.
Response: 2.07

Query: Same question for Ib_S2_P5E.1_K5.1_C5.1_H5.1_[T3G]_[A4T]_A5.1_F5.1_T5.1 (ssRNA) RNA: UUUGAUUAAUAUGAUAUCGUUCUUUCUUGGUUUAUUAUUCUUUCUCGAUAUCAUAUUAAUCUUU please.
Response: 2.98

Query: Same question for Ic_S4_P4E.1_K4.1_C4.1_H4.1_A4.1_[T5C]_[T7A]_F4.1_[T8A]_T4.1 (ssRNA) RNA: UUUGACAACUGAUCGUUCUUUCUUGUACAAAAUUCUUUCUCGAUCAGUUGUCUUU please.
Response: 1.14

Query: Same question for UCUCUUCUUGUACUCUAUAUAUCUCUU (ssRNA) [Ie_S1_P3E.2_K3.1_C3.2_H3.1_[+4CTC]_A3.1_F3.1_T3.2] please.
Response: 0.60

Query: Same question for UCUCUUUGUAUAUCCUCUUAUCUCUU (ssRNA) [Ie_S1_P4E.1_K4.1_C4.1_H4.1_A4.1_[+7CCTCT]_F4.1_T4.1] please.
Response: 1.50

Query: Same question for Ib_S4_P5E.1_K5.1_C5.1_H5.1_A5.1_[T6A]_[A7C]_F5.1_T5.1 (ssRNA) RNA: UUUGACAACUGAUCGUUCUUUCUUGUAUACUUAUUCUUUCUCGAUCAGUUGUCUUU please.
Response: 0.38

Query: Same question for Ic_S4_P5E.1_K5.1_C5.1_H5.1_A5.1_[T5C]_[T6A]_[A7T]_F5.1_[T8A]_[T9G]_[A10T]_T5.1 (ssRNA) RNA: UUUGACAACUGAUCGUUCUUUCUUGUACAUAGUUUCUUUCUCGAUCAGUUGUCUUU please.
Response: 0.70

Query: Same question for Ic_S4_P4E.1_K4.1_C4.1_H4.1_A4.1_[T5C]_[A6C]_[T7G]_F4.1_[T8G]_[A9T]_T4.1 (ssRNA) RNA: UUUGACAACUGAUCGUUCUUUCUUGUACCGGUUUCUUUCUCGAUCAGUUGUCUUU please.
Response: 3.34

Query: Same question for Ic_S4_P4E.1_K4.1_C4.1_H4.1_A4.1_[T5A]_[A6T]_[T7A]_F4.1_[A9G]_T4.1 (ssRNA) RNA: UUUGACAACUGAUCGUUCUUUCUUGUAAUAUGUUCUUUCUCGAUCAGUUGUCUUU please.
Response: 1.33
